pIC50: −log10 of the molar value.
Test system LRRK2 (Homo sapiens, UniProt Q5S007), pIC50 listed for each of the molecules.

INSERT INTO measurements (compound_smiles, result_value) VALUES
  ('O=C(c1ccc(Nc2cc(C3CC3)c3c(C(F)(F)F)c[nH]c3n2)c2c1CCO2)N1CCOCC1', '6.00 to 6.52');

Look up pIC50 of CNc1cc(Nc2ccc(C(=O)N3CCOCC3)c3c2OCCO3)nc2[nH]cc(C#N)c12 and report it.
> 7.00

Provide measured pIC50 value, entry: O=C(c1ccc(Nc2cc(NC3CC3)c3c(C(F)(F)F)c[nH]c3n2)c2c1CCO2)N1CCOCC1
> 7.00

Look up pIC50 of COCCNc1cc(Nc2ccc(P3(=O)CCN(C4COC4)CC3)cc2OC)nc2[nH]cc(C(F)(F)F)c12 and report it.
> 7.00

State its pIC50 for this molecule: COc1cc(S(=O)(=O)N2CCOCC2)ccc1Nc1cc(NC2CC2)c2c(C(F)(F)F)c[nH]c2n1
6.00 to 6.52

Dear colleague, please send me the reported pIC50 for CCCNc1cc(Nc2ccc(S(C)(=O)=O)cc2OC)nc2[nH]ccc12 when you can.
> 7.00

Identify measured pIC50 corresponding to COc1cc(S(C)(=O)=O)ccc1Nc1cc(NC2CC2)c2c(C#N)c[nH]c2n1
> 7.00

Please look at this molecule and report its pIC50: COCCNc1cc(Nc2ccc(P3(=O)CCN(C4COC4)CC3)cc2OC)nc2[nH]cc(C#N)c12
> 7.00

Answer with reported pIC50 of CNc1cc(Nc2ccc(C(=O)N3C[C@@H]4C[C@H]3CO4)c3c2OCCO3)nc2[nH]cc(C(F)(F)F)c12
> 7.00
